meta.source: patent EP4803513A1

# Tested on: WT-BaF3 cells
# protocol description: Cell antiproliferative activity assay (CCK-8), WT-BaF3 (broad-spectrum cytotoxicity)
# Type: cell-based
# run conditions: 72 h; WT-BaF3 cells (IL-3 supplemented), CCK-8, 3 days incubation
readout name: IC50

* Cc1c[nH]c(=O)cc1-c1cc(C(C)C)c2nc(Nc3cnn(C4CCN(C)CC4)c3C)ncc2c1 | 500 to 2500 nM
* Cc1nn(CCO)cc1Nc1ncc2cc(-c3cncnc3N)cc(C(C)C)c2n1 | > 2500 nM
* Cc1nn(C)cc1Nc1ncc2cc(-c3cncnc3C)cc(C(C)C)c2n1 | 100 to 500 nM
* Cc1nn(C2COC2)cc1Nc1ncc2cc(-c3c(C)ncnc3C)cc(C(C)C)c2n1 | 500 to 2500 nM
* Cc1cc(Nc2ncc3cc(-c4nccnc4C)cc(C(C)C)c3n2)c(F)cc1P(C)(C)=O | 500 to 2500 nM
* COCCN(C)CCn1cc(Nc2ncc3cc(-c4nccnc4C)cc(C(C)C)c3n2)c(C)n1 | > 2500 nM
* Cc1nn(CCO)cc1Nc1ncc2cc(-c3nccnc3N)cc(C3CC3)c2n1 | 500 to 2500 nM
* COc1cc(Nc2ncc3cc(-c4nccnc4C)cc(C(C)C)c3n2)cc(OC)c1P(C)(C)=O | 500 to 2500 nM
* Cc1nn(CCO)cc1Nc1ncc2cc(-c3nccnc3N)cc(C(C)C)c2n1 | > 2500 nM
* Cc1nn(CC(C)(C)O)cc1Nc1ncc2cc(-c3nccnc3C)cc(C(C)C)c2n1 | > 2500 nM
* Cc1ccc(C#N)cc1-c1cc(C(C)C)c2nc(Nc3cnn(CCO)c3C)ncc2c1 | > 2500 nM
* Cc1c[nH]c(=O)cc1-c1cc(C(C)C)c2nc(Nc3cnn(CCO)c3C)ncc2c1 | > 2500 nM
* Cc1cc(P(C)(C)=O)ccc1Nc1ncc2cc(-c3nccnc3C)cc(C(C)C)c2n1 | > 2500 nM
* Cc1nccnc1-c1cc(C(C)C)c2nc(Nc3cn(CCO)nc3Cl)ncc2c1 | 500 to 2500 nM
* Cc1nn(CCO)cc1Nc1ncc2cc(-c3cccnc3)cc(C(F)(F)F)c2n1 | > 2500 nM
* Cc1nn(CCO)cc1Nc1ncc2cc(-c3c(O)cccc3F)cc(C(C)C)c2n1 | 500 to 2500 nM
* Cc1ccc(C#N)cc1-c1cc(C(C)C)c2nc(Nc3cn(CCO)nc3C)ncc2c1 | 500 to 2500 nM
* COc1nc(P(C)(C)=O)ccc1Nc1ncc2cc(-c3nccnc3C)cc(C3CC3)c2n1 | 500 to 2500 nM

###

Listing of entries alongside the reported pIC50.
# System: WT-BaF3 cells
# protocol description: Cell antiproliferative activity assay (CCK-8), WT-BaF3 (broad-spectrum cytotoxicity)
# Format: cell-based
# run conditions: 72 h; WT-BaF3 cells (IL-3 supplemented), CCK-8, 3 days incubation
pIC50: −log10 of the molar value.
readout name: pIC50

- Cc1cc(Nc2ncc3cc(-c4c(C)ncnc4C)cc(C(C)C)c3n2)c(F)cc1P(C)(C)=O: < 5.60
- COc1cc(Nc2ncc3cc(-c4nccnc4C)cc(C4CC4)c3n2)ccc1P(C)(C)=O: 6.30 to 7.00
- Cc1nn(C)cc1Nc1ncc2cc(-c3cn(C)nc3C)cc(C(C)C)c2n1: 6.30 to 7.00
- Cc1ccncc1-c1cc(C(C)C)c2nc(Nc3cn(C)nc3C)ncc2c1: 6.30 to 7.00
- Cc1nccnc1-c1cc(C(C)C)c2nc(Nc3ccc(P(C)(C)=O)c(Cl)c3F)ncc2c1: 5.60 to 6.30
- Cc1nn(CCO)cc1Nc1ncc2cc(-c3cccnc3N)cc(C(C)C)c2n1: 5.60 to 6.30
- COc1nc(Nc2ncc3cc(-c4nccnc4C)cc(C4CC4)c3n2)ccc1P(C)(C)=O: 5.60 to 6.30
- Cc1nn(CCO)cc1Nc1ncc2cc(-c3ccnc(N)c3)cc(C(C)C)c2n1: 5.60 to 6.30

###

# System: WT-BaF3 cells
# protocol description: Cell antiproliferative activity assay (CCK-8), WT-BaF3 (broad-spectrum cytotoxicity)
# Type: cell-based
# run conditions: 72 h; WT-BaF3 cells (IL-3 supplemented), CCK-8, 3 days incubation
readout name: IC50

• Cc1nn(CCO)cc1Nc1ncc2cc(-c3cncnc3)cc(C(C)C)c2n1 = 0.5 to 2.5 µM
• Cc1nn(CCO)cc1Nc1ncc2cc(-c3cnccc3C#N)cc(C(C)C)c2n1 = > 2.5 µM
• Cc1nn(CCO)cc1Nc1ncc2cc(-c3cccnc3C)cc(C(F)(F)F)c2n1 = > 2.5 µM
• Cc1nn(CCO)cc1Nc1ncc2cc(-c3ncnc(C)c3Br)cc(C(C)C)c2n1 = 0.5 to 2.5 µM
• Cc1nn(CCO)cc1Nc1ncc2cc(-c3cnccc3F)cc(C(C)C)c2n1 = > 2.5 µM
• Cc1nn(CCO)cc1Nc1ncc2cc(-c3cc(F)cnc3C)cc(C3CC3)c2n1 = 0.5 to 2.5 µM

###

# System: WT-BaF3 cells
# protocol description: Cell antiproliferative activity assay (CCK-8), WT-BaF3 (broad-spectrum cytotoxicity)
# Type: cell-based
# run conditions: 72 h; WT-BaF3 cells (IL-3 supplemented), CCK-8, 3 days incubation
// values below are reported IC50
readout name: IC50

• Cc1nn(C2COC2)cc1Nc1ncc2cc(-c3c(C)ncnc3C)cc(C3CC3)c2n1 [III-98] = 500 to 2500 nM
• Cc1nn(CCO)cc1Nc1ncc2cc(-c3cn(C)nc3C)cc(C(C)C)c2n1 [I-188] = 500 to 2500 nM
• Cc1nn(CCO)cc1Nc1ncc2cc(-c3nccnc3C)cc(C(F)(F)F)c2n1 [I-109] = > 2500 nM
• Cc1cncc(-c2cc(C(C)C)c3nc(Nc4cn(CCO)nc4C)ncc3c2)n1 [I-90] = 500 to 2500 nM
• COc1ncncc1-c1cc(C(C)C)c2nc(Nc3cn(CCO)nc3C)ncc2c1 [I-125] = > 2500 nM

###

compounds and their reported pIC50
# Test system: WT-BaF3 cells
# protocol description: Cell antiproliferative activity assay (CCK-8), WT-BaF3 (broad-spectrum cytotoxicity)
# Assay type: cell-based
# run conditions: 72 h; WT-BaF3 cells (IL-3 supplemented), CCK-8, 3 days incubation
pIC50: −log10 of the molar value.
readout name: pIC50

• Cc1ccnnc1-c1cc(C(F)(F)F)c2nc(Nc3cn(CCO)nc3C)ncc2c1 = 5.60 to 6.30
• Cc1ccncc1-c1cc(C(C)C)c2nc(Nc3cnn(CCO)c3C)ncc2c1 = < 5.60
• CNc1cc(Nc2ncc3cc(-c4nccnc4C)cc(C4CC4)c3n2)ccc1P(C)(C)=O = 6.30 to 7.00
• COc1cc(P(C)(C)=O)ncc1Nc1ncc2cc(-c3nccnc3C)cc(C(C)C)c2n1 = < 5.60
• Cc1nn(CCO)cc1Nc1ncc2cc(-c3c(F)ccnc3Cl)cc(C(C)C)c2n1 = < 5.60
• Cc1nccnc1-c1cc(C(F)(F)F)c2nc(Nc3ccc(P(C)(C)=O)cc3)ncc2c1 = < 5.60
• CCc1cc(P(C)(C)=O)ccc1Nc1ncc2cc(-c3nccnc3C)cc(C(C)C)c2n1 = < 5.60
• Cc1cncnc1-c1cc(C2CC2)c2nc(Nc3cn(CCO)nc3C)ncc2c1 = < 5.60
• Cc1cn(C)nc1-c1cc(C(C)C)c2nc(Nc3cn(CCO)nc3C)ncc2c1 = 5.60 to 6.30
• COc1nccnc1-c1cc(C(C)C)c2nc(Nc3cn(CCO)nc3C)ncc2c1 = 5.60 to 6.30
• Cc1nn(CCO)cc1Nc1ncc2cc(-c3cc(F)cnc3F)cc(C(C)C)c2n1 = < 5.60
• Cc1nn(C2CCN(C)CC2)cc1Nc1ncc2cc(-c3nccnc3C)cc(C(C)C)c2n1 = 5.60 to 6.30
• Cc1nccnc1-c1cc(C(C)C)c2nc(Nc3cnn(C4CCN(C)CC4)c3C)ncc2c1 = < 5.60
• Cc1nn(CCO)cc1Nc1ncc2cc(-c3nccnc3Cl)cc(C3CC3)c2n1 = < 5.60
• Cc1nccnc1-c1cc(C(C)C)c2nc(Nc3ccc(P(C)(C)=O)cc3)ncc2c1 = 5.60 to 6.30
• Cc1nccnc1-c1cc(C2CC2)c2nc(Nc3ccc(P(C)(C)=O)cc3)ncc2c1 = 5.60 to 6.30
• CC(C)c1cc(-c2cccnc2)cc2cnc(Nc3cn(CCO)nc3C(F)F)nc12 = 5.60 to 6.30
• Cc1nccnc1-c1cc(C(C)C)c2nc(Nc3cn(C)nc3Cl)ncc2c1 = 5.60 to 6.30
• Cc1nc(Nc2ncc3cc(-c4nccnc4C)cc(C(C)C)c3n2)ccc1P(C)(C)=O = < 5.60
• CCN(C)CCn1cc(Nc2ncc3cc(-c4nccnc4C)cc(C(C)C)c3n2)c(C)n1 = < 5.60
• CCP(=O)(CC)c1ccc(Nc2ncc3cc(-c4nccnc4C)cc(C4CC4)c3n2)cc1OC = 5.60 to 6.30
• Cc1nn(CCO)cc1Nc1ncc2cc(-c3ncccc3F)cc(C(C)C)c2n1 = < 5.60
• Cc1cc(P(C)(C)=O)ncc1Nc1ncc2cc(-c3c(C)ncnc3C)cc(C(C)C)c2n1 = < 5.60
• Cc1nc(P(C)(C)=O)ccc1Nc1ncc2cc(-c3nccnc3C)cc(C(C)C)c2n1 = < 5.60
• Cc1nn(CCO)cc1Nc1ncc2cc(-c3nnccc3C#N)cc(C(C)C)c2n1 = < 5.60
• Cc1nn(CCO)cc1Nc1ncc2cc(-c3cnoc3C)cc(C(C)C)c2n1 = 6.30 to 7.00
• Cc1nn(CCO)cc1Nc1ncc2cc(-c3nccnc3C)cc(C(C)C)c2n1 = < 5.60
• COc1cc(Nc2ncc3cc(-c4cccnc4C)cc(C4CC4)c3n2)ccc1P(C)(C)=O = 5.60 to 6.30
• Cc1nn(CCO)cc1Nc1ncc2cc(-c3cncnc3C)cc(C3CC3)c2n1 = 5.60 to 6.30
